- Test system: patients with mild to moderate aortic stenosis
- Assay Procedure: Lab measures (chemistry panel) in ramipril pilot study
- Format: in vivo, human
- Conditions Used: Week 5, n = 8, mean±SD
Assay Endpoint: Potassium (mEq/L)
Give your result in mEq/L as a bare value.

// recorded Potassium for CCOC(=O)[C@H](CCc1ccccc1)N[C@@H](C)C(=O)N1[C@H](C(=O)O)C[C@@H]2CCC[C@@H]21 : 4.3

----------
- Test system: patients with mild to moderate aortic stenosis
- Assay Procedure: Lab measures (chemistry panel) in ramipril pilot study
- Format: in vivo, human
- Conditions Used: Week 1, n = 8, mean±SD
Assay Endpoint: Potassium

Data point: CCOC(=O)[C@H](CCc1ccccc1)N[C@@H](C)C(=O)N1[C@H](C(=O)O)C[C@@H]2CCC[C@@H]21 [ramipril] ; Potassium = 4.3 mEq/L

----------
- System: patients with mild to moderate aortic stenosis
- Assay Procedure: Lab measures (chemistry panel) in ramipril pilot study
- Assay type: in vivo, human
- Conditions Used: Week 7, n = 8, mean±SD
Assay Endpoint: Potassium

// sample CCOC(=O)[C@H](CCc1ccccc1)N[C@@H](C)C(=O)N1[C@H](C(=O)O)C[C@@H]2CCC[C@@H]21 , its Potassium was 4.4 mEq/L

----------
- Test system: patients with mild to moderate aortic stenosis
- Assay Procedure: Lab measures (chemistry panel) in ramipril pilot study
- Type: in vivo, human
- Conditions Used: final measurement, mean±SD
- Description: Clinical Protocol: This pilot study enrolled 8 patients with mild to moderate aortic stenosis, normal left ventricular (LV) function and no history of coronary artery disease. […] Patients then were placed on the ACE inhibitor ramipril, 2.5 mg qd for 2 weeks followed by up-titration at 2 week intervals to 2.5 mg bid, 5 mg bid and 7.5 mg bid. The study lasted 8 weeks. Vital signs were repeated weekly, chemistry panels every 2 weeks and echocardiograms every 4 weeks.
Assay Endpoint: Potassium (mEq/L)
// return numeric value only (unit: mEq/L, not printed)

Sample CCOC(=O)[C@H](CCc1ccccc1)N[C@@H](C)C(=O)N1[C@H](C(=O)O)C[C@@H]2CCC[C@@H]21 [ramipril] ; Potassium observed: 4.3

----------
- System: patients with mild to moderate aortic stenosis
- Assay Procedure: Lab measures (chemistry panel) in ramipril pilot study
- Type: in vivo, human
- Conditions Used: Week 3, n = 8, mean±SD
Assay Endpoint: Potassium (mEq/L)
Please state the figure in mEq/L; there is no need to write the unit.

GET /value?item= CCOC(=O)[C@H](CCc1ccccc1)N[C@@H](C)C(=O)N1[C@H](C(=O)O)C[C@@H]2CCC[C@@H]21 &field=Potassium returns 4.4
